Target: T1, macaca IL6R-his protein (macaca mulatta)
T1 chain: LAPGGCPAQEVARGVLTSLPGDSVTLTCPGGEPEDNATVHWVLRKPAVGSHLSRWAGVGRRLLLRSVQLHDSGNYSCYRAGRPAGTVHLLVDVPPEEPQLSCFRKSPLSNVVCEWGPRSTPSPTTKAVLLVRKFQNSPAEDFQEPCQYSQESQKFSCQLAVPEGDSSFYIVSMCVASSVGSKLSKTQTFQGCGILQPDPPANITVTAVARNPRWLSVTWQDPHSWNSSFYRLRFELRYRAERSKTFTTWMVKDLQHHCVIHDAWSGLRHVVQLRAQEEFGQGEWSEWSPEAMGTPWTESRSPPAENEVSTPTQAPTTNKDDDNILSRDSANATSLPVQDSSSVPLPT
Assay: SPR Biacore T200; mAb captured by anti-mouse IgG on CM5, antigen in flow, 1:1 fit
quantityName: Kd (nM)
I only need the number, in nM, no unit after it.

mouse anti-IL6R monoclonal antibody 3C2 (antibody, V domains shown, Mouse hybridoma mAb) VH: QVQLQQPGTELVKPGASVKLSCKASGYTFTTYWIHWVKQRPGQGLEWIGEINPSNGRTNYNEHFKSKATLTVDKSSSTASMQLSSLTSADSAVYYCARLNTHYVFDSWGQGTTLTVSS VL: EIVLTQSPTTMAASPGEKITITCSASSSISSNYLHWYQQKPGFSPKLLIYRTSNLASGVPTHFSGSGSGTSYSLTIGTMEAEDVATYYCQQGSGIPFTFGSGTKLEIK = 0.977

Exercise: Item under review: mouse anti-IL6R monoclonal antibody 1F7 (antibody, V domains shown, Mouse hybridoma mAb) VH: QVQLQQPGAELVKPGASVKLSCKASDYTFTSYWMHWVKQRPGQGLEWIGEINPSNGRTNYNEKFKNKATLTVDKSSSTAYVQLYSLTSEDSAVYYCARLSIHYVFDYWGQGTTLTVSS VL: ELVLTQSPTTMAASPGEKITFTCSASSSISSNYLHWYQQKPGFSPKLLISGTSNLASGVPPRFSGSGSGTSYSLTIVTMEAEDVATYYCQQGSGIPFTFGSGTKLEIK . Reported Kd?
Solution: 0.523
